Values compiled from PubChem BioAssay.

- TARGET_ENTITY: Short transient receptor potential channel 4 (Mus musculus)
- TEST_METHOD_NOTES: blockers of DAMGO-evoked TRPC4 calcium flux – cell-based, Fluo4, HEK293 TRPC4beta/mu-opioid, confirmation (AID 2636)
- EXPERIMENTAL_CONDITIONS: at 10 µM
Calls of active or inactive are those of the source.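 Rule for the calls: active = calcium signal cut by more than 3 SD below the full-agonist control yet still positive, in both repeats and the earlier primary screen; inactive = the rest.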
Return exactly one item of active, inactive

MOLECULE	DISCRETE_LABEL
CCOC(=O)CSc1nc2ccccc2c(=O)n1CC1CCCC1	active

Task: # fetch the recorded call for O=C(NCCCN1CCCC1=O)c1ccc(CNS(=O)(=O)c2ccc(F)cc2)cc1 here
Result: inactive

Task: # fetch the recorded call for O=C(Nc1ccc(Cl)c(Cl)c1)N(CCCN1CCOCC1)Cc1cccs1 here
Result: inactive

Task: # fetch the recorded call for NC(=O)c1nsc(C(=O)N(Cc2ccccc2Cl)C(C(=O)NCC2CCCO2)c2ccc(O)cc2)c1N (stereo not given) here
Result: active

====

- TEST_METHOD_NOTES: serotonin-gated TRPC4 signal block – cell-based, second counter screen, HEK293 TRPC4/5HT1a, Fluo-4, counter-screen for TRPC4 inhibitor project, confirmation (AID 434978)
- EXPERIMENTAL_CONDITIONS: Fluo-4 calcium flux, at 10 µM, serotonin added to trigger calcium flux; active compounds read high
The source made the active and inactive calls.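 How the source made its calls: active means primary screen active whose calcium signal fell more than 3 SD beyond the full-serotonin control mean in both duplicate plates; inactive means the rest.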
PROPERTY_NAME: inhibition

Check out these entries, answers already filled in.
COMPOUND	inhibition
Cn1cc(-c2nc3ccccc3[nH]2)c2ccccc21	41.1% (active)
c1ccc(Cn2c(NCc3ccco3)nc3ccccc32)cc1	25.2% (active)
Cc1ccc2nc3c(c(N)c2c1)CCN3C	15.4% (active)
CCOC(=O)C1=C(C)N(c2ccccc2)C(=O)NC1c1cccc([N+](=O)[O-])c1 (configuration not stated)	inactive
C=C(c1ccc(O)cc1)c1ccc(O)cc1	29.6% (active)
COc1ccc(C(CNC(=O)CSc2ccccc2C)N(C)C)cc1 (configuration not stated)	inactive
CN(C)C(CNc1ccc(C(N)=O)cc1[N+](=O)[O-])c1ccccc1 (configuration not stated)	inactive
CCOc1ccc2nc(N3CCCC(C(=O)NCC4CCCO4)C3)sc2c1 (configuration not stated)	inactive

Task: Given the compound CCc1ccc(-c2nn(-c3ccccc3)cc2CSC(=N)N)cc1 , write its reported inhibition.
Result: inactive

Task: Given the compound NC(=O)c1nsc(C(=O)N(Cc2ccco2)C(C(=O)NCc2ccccc2)c2ccc(O)cc2)c1N (configuration not stated) , write its reported inhibition.
Result: 40% (active)

Task: Given the compound FC(F)Oc1ccccc1NC(=S)Nc1cccc(Cl)c1Cl , write its reported inhibition.
Result: inactive

Task: Given the compound CCCCOc1ccc(CSC(=N)N)cc1[N+](=O)[O-] , write its reported inhibition.
Result: inactive

====

- TARGET_ENTITY: Short transient receptor potential channel 4 (Mus musculus) (UniProt Q9QUQ5)
- Sequence (Q9QUQ5 whole entry, looked up): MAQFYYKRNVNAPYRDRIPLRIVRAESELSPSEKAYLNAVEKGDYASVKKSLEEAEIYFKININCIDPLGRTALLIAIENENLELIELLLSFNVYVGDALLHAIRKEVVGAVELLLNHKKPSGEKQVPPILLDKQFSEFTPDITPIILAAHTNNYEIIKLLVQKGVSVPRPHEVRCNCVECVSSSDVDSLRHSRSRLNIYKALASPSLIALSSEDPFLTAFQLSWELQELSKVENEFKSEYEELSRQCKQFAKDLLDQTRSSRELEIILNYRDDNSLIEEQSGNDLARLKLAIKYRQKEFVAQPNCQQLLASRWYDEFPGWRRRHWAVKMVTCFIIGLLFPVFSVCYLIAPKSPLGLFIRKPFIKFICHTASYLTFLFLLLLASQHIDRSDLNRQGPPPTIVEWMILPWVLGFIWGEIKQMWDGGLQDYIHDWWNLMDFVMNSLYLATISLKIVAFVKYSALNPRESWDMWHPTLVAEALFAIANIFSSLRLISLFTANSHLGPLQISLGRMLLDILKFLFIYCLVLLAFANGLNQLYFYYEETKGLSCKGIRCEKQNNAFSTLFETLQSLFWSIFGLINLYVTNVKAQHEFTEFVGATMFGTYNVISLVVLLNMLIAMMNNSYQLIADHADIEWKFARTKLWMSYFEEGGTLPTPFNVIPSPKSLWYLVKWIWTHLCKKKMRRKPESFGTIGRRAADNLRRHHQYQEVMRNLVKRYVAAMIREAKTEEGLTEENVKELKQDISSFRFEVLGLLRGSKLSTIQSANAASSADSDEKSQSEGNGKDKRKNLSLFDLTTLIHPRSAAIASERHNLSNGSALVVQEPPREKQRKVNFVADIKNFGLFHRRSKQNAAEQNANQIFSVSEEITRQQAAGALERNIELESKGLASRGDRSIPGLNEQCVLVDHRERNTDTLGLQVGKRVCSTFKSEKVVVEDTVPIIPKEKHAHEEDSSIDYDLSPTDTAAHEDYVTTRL
- TEST_METHOD_NOTES: blockers of DAMGO-evoked TRPC4 calcium flux – cell-based, second round, Fluo4, HEK293 TRPC4beta/mu-opioid, 1 µM, confirmation (AID 2637)
- EXPERIMENTAL_CONDITIONS: at 1 µM
Calls of active or inactive are those of the source.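 How the source made its calls: active means calcium signal ratio cut to more than 3 SD under the fully stimulated control mean yet still positive, in both repeats and the primary screen; inactive means the rest.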
Return exactly one item of class 1 (active), class 0 (inactive)

COMPOUND	TARGET_ENTITY	DISCRETE_LABEL
CC(C)CCN1CCN(Cc2ccsc2)CC1CCO (stereo unspecified)	Short transient receptor potential channel 4 (Mus musculus) (UniProt Q9QUQ5)	class 1
N#Cc1c(N2CCCCC2)nc(N)c2c(N)nc3c(c12)CC(c1ccccc1)O3 (stereo unspecified)	Short transient receptor potential channel 4 (Mus musculus) (UniProt Q9QUQ5)	class 1
CCCCN(CC)CCNC(=O)Cn1cc2c(n1)-c1c(oc(C(=O)N3CCCC3)c1C)CC2	Short transient receptor potential channel 4 (Mus musculus) (UniProt Q9QUQ5)	class 0
Cn1cc(-c2nc3ccccc3[nH]2)c2ccccc21	Short transient receptor potential channel 4 (Mus musculus) (UniProt Q9QUQ5)	class 1
O=[N+]([O-])c1ccc(CN2CCN(Cc3c[nH]c4ccccc34)CC2)cc1	Short transient receptor potential channel 4 (Mus musculus) (UniProt Q9QUQ5)	class 0

Task: # fetch the recorded call for CCOC(=O)C1=C(C)N(c2ccccc2)C(=O)NC1c1cccc([N+](=O)[O-])c1 (stereo unspecified) here
Result: class 0

Task: # fetch the recorded call for COc1ccc(C(Nc2ccccn2)c2c(NC(=O)c3ccco3)sc(C)c2C)cc1OC (stereo unspecified) here
Result: class 1

Task: # fetch the recorded call for CCN1CCN(c2c(Cl)cccc2NC(=O)c2ccc([N+](=O)[O-])cc2)CC1 here
Result: class 0

Task: # fetch the recorded call for NS(=O)(=O)c1ccc(Oc2ccc(S(N)(=O)=O)cc2)cc1 here
Result: class 0

Task: # fetch the recorded call for CCN1CCCC1CNCc1ccc(Cl)cc1Cl (stereo unspecified) here
Result: class 0

Task: # fetch the recorded call for Cc1csc2c(N3CCN(C(=O)Nc4ccccc4)CC3)ncnc12 here
Result: class 0
